Give kon for every item shown.
- System under test: T1, Human CCR8 (C-C chemokine receptor type 8) expressed on CHO-S cells (human, UniProt P51685 1-355)
- T1 construct: also called huCCR8; human CCR8-expressing CHO-S cells
- T1 sequence (P51685 whole entry): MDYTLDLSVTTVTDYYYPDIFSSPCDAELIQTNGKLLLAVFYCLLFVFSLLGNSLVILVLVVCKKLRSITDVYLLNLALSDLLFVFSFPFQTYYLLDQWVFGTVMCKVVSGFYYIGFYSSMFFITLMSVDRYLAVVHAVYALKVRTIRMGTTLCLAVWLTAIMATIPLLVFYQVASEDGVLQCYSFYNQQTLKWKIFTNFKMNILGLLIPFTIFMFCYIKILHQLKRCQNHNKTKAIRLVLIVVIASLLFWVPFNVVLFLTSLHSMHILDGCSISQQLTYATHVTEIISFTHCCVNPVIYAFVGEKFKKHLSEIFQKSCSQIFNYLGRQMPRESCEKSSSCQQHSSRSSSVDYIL
- Assay summary: KinExA, on-cell affinity
Answers are plain numbers, in M⁻¹ s⁻¹.

{"columns": ["Binder", "Experimental result"],
 "data": [
  ["Humanized 7-B16.033 (antibody, human IgG1, kappa, V domains shown, Humanized) VH: EVQLVESGGGLVQPGRSLRLSCTASGFTFATYAMNWVRQAPGKGLEWVARIRSKSNNYATYYADSVKDRFTISRDDSKSILYLQMNSLKTEDTAVYYCVRGLLRYRFFDVWGQGTTVTVSS VL: DIVMTQSPLSLPVTPGEPASISCRSSKSLLHSNGNTYLYWFLQKPGQSPQLLIYRMSNLASGVPDRFSGSGSGTDFTLKISRVEAEDVGVYYCMQHLEYPFTFGGGTKVEIKR", "5.25e+06"],
  ["Humanized 7-B16.001 (antibody, human IgG1, kappa, V domains shown, Humanized) VH: EVQLVESGGGLVQPGGSLKLSCAASGFTFNTYAMNWVRQASGKGLEWVGRIRSKSNNYATYYADSVKDRFTISRDDSKNTAYLQMNSLKTEDTAVYYCVRGLLRYRFFDVWGQGTTVTVSS VL: DIVMTQSPLSLPVTPGEPASISCRSSKSLLHSNGNTYLYWFLQKPGQSPQLLIYRMSNLASGVPDRFSGSGSGTDFTLKISRVEAEDVGVYYCMQHLEYPFTFGGGTKVEIKR", "4.99e+06"],
  ["Humanized 1-K17.044 (antibody, human IgG1, kappa, V domains shown, Humanized with hotspot correction) VH: EVQLVQSGAEVKKPGASVKVSCKASGYTFTSYNMHWVRQAPGQGLEWIGAIYPGAGDTSYNQKFKGRATLTADKSTSTAYMELSSLRSEDTAVYYCARKGGTPFAYWGQGTLVTVSS VL: DVVMTQSPLSLPVTLGQPASISCRSSQSLVHSNAATYLYWYQQRPGQSPRLLIYKVSNRFSGVPDRFSGSGSGTDFTLKISRVEAEDVGVYFCSQSTHVPYTFGQGTKLEIKR", "8.29e+06"]
]}

Let us examine a further case.
## Input Param item = Humanized 1-K17.015 (antibody, human IgG1, kappa, V domains shown, Humanized with hotspot correction) VH: EVQLVQSGAEVKKPGASVKVSCKASGYTFTSYNMHWVRQAPGQRLEWIGAIYPGQGDTSYNQKFKGRATLTADKSASTAYMELSSLRSEDTAVYYCARKGGTPFAYWGQGTLVTVSS VL: DVVMTQSPLSLPVTLGQPASISCRSSQSLVHSNAQTYLYWYQQRPGQSPRLLIYKVSNRFSGVPDRFSGSGSGTDFTLKISRVEAEDVGVYFCSQSTHVPYTFGQGTKLEIKR ; retrieve measured kon.
## Output 9.78e+06
